# test target: T1, human EGFRvIII-hFc protein (human, UniProt P00533 25-645)
# T1 construct: extracellular domain; also called immunogen A; hFc-tagged EGFRvIII protein; not shown: human IgG Fc fragment (hFc) of the pCpC vector
# assay: ELISA, EGFRvIII-hFc coated
observed property: Maximum OD450 value (OD450)
Give the value in OD450 but do not write OD450 after it.

Humanized antibody h63A10A7-25 (antibody, human IgG1, V domains shown, also called VH-g4/VL-g7) VH: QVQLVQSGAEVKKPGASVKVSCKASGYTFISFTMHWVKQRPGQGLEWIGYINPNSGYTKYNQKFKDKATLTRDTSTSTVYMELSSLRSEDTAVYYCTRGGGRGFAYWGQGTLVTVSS VL: DILMTQSPSSLSASVGDRVTITCHASQDINSNIGWYQQKPGKSFKALIYHGTNLEDGVPSRFSGSGSGADYTLTISSLQPEDFATYYCVQYAQFPFTFGQGTKLEIK
3.61
Humanized antibody h75G7C6-13 (antibody, human IgG1, V domains shown, also called VH-g2/VL-g0) VH: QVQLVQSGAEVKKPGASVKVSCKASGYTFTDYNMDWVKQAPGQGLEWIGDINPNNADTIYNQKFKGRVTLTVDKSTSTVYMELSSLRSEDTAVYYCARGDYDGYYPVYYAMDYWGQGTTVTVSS VL: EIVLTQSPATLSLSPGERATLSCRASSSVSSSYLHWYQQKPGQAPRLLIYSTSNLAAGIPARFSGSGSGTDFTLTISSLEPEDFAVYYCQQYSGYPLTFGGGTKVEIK
3.16

Quick one: Maximum OD450 value for Humanized antibody h63A10A7-20 (antibody, human IgG1, V domains shown, also called VH-g7/VL-g4) VH: QVQLVQSGAEVKKPGASVKVSCKASGYTFISFTMHWVRQAPGQGLEWIGYINPNSGYTKYNQKFKDKATLTRDTSTSTVYMELSSLRSEDTAVYYCTRGGGRGFAYWGQGTLVTVSS VL: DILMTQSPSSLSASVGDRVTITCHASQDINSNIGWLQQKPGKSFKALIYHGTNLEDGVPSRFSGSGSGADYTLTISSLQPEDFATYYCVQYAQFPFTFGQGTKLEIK ?
3.55

Where do these numbers come from? They come from patent US20210032351A1.
